Therapeutic index values, listed per item
# protocol_notes: Therapeutic index (CC50/MIC) was determined

CC(C)C1=CC2CC3(C=O)[C@@H]4CC[C@@H](C)[C@H]4CC2(/C=N/OCC2CCCCC2)[C@]13C(=O)O: 2.4
CC(C)C1=CC2CC3(C=O)[C@@H]4CC[C@@H](C)[C@H]4CC2(/C=N/OC2CCCCO2)[C@]13C(=O)O (some centres undefined): 66
CC#CCO/N=C/C12C[C@@H]3[C@H](C)CC[C@H]3C3(C=O)CC1C=C(C(C)C)[C@@]23C(=O)O: 2
CC(C)CO/N=C/C12C[C@@H]3[C@H](C)CC[C@H]3C3(C=O)CC1C=C(C(C)C)[C@@]23C(=O)O: 70
CC(C)C1=CC2CC3(C=O)[C@@H]4CC[C@@H](C)[C@H]4CC2(/C=N/OCCCC(F)(F)F)[C@]13C(=O)O: 1.9
COC1C(O)[C@H](O)[C@H](OC[C@@]23C[C@@H]4[C@H](C)CC[C@H]4[C@@]4(C=O)CC2C=C(C(C)C)[C@@]34C(=O)O)O[C@@H]1C (single isomer, unassigned): 10
CC(C)C1=CC2CC3(C=O)[C@@H]4CC[C@@H](C)[C@H]4CC2(/C=N/OCc2ccccc2Cl)[C@]13C(=O)O: 0.7
CCCCCO/N=C/C12C[C@@H]3[C@H](C)CC[C@H]3C3(C=O)CC1C=C(C(C)C)[C@@]23C(=O)O: 92
CC(C)CCO/N=C/C12C[C@@H]3[C@H](C)CC[C@H]3C3(C=O)CC1C=C(C(C)C)[C@@]23C(=O)O: 8
COCCOCCO/N=C/C12C[C@@H]3[C@H](C)CC[C@H]3C3(C=O)CC1C=C(C(C)C)[C@@]23C(=O)O: 5.7

Tell us which Therapeutic index value is on record for CC(C)=CCO/N=C/C12C[C@@H]3[C@H](C)CC[C@H]3C3(C=O)CC1C=C(C(C)C)[C@@]23C(=O)O
4.5

Tell me measured Therapeutic index for CC(C)C1=CC2CC3(C=O)[C@@H]4CC[C@@H](C)[C@H]4CC2(/C=N/OCC2CCCCO2)[C@]13C(=O)O (some centres undefined) please.
4.5

Find the measured Therapeutic index of CCOCCO/N=C/C12C[C@@H]3[C@H](C)CC[C@H]3C3(C=O)CC1C=C(C(C)C)[C@@]23C(=O)O and report it.
1.4

Please indicate Therapeutic index recorded for CC[C@@H](C)CO/N=C/C12C[C@@H]3[C@H](C)CC[C@H]3C3(C=O)CC1C=C(C(C)C)[C@@]23C(=O)O
11
